Field: HEK-Blue Activity Assay Ec50 (pM), +50 nM hu IL-18BP. Provide a value for each of the binders that follow.
Target: T1, human IL-18 binding protein (IL-18BP) (human, UniProt O95998 31-194)
T1 sequence (looked up): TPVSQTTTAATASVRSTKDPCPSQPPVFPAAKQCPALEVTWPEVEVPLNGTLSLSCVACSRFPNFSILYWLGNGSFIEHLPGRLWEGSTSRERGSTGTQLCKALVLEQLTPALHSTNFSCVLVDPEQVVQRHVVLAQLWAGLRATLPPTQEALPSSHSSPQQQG
Assay: cell-based or functional assay
Give the number; pM is assumed, so skip it.

## Input Given IL-18 variant G3V, M60K (ligand) YFVKLESKLSVIRNLNDQVLFIDQGNRPLFEDMTDSDMRDNAPRTIFIISMYKDSQPRGKAVTISVKSEKISTLSSENKIISFKEMNPPDNIKDTKSDIIFFQRSVPGHDNKMQFESSSYEGYFLASEKERDLFKLILKKEDELGDRSIMFTVQNED , state its recorded HEK-Blue Activity Assay Ec50 (pM), +50 nM hu IL-18BP.
## Output 0.16

## Input Given IL-18 variant G3E, K53S (ligand) YFEKLESKLSVIRNLNDQVLFIDQGNRPLFEDMTDSDMRDNAPRTIFIISMYSDSQPRGMAVTISVKSEKISTLSSENKIISFKEMNPPDNIKDTKSDIIFFQRSVPGHDNKMQFESSSYEGYFLASEKERDLFKLILKKEDELGDRSIMFTVQNED , state its recorded HEK-Blue Activity Assay Ec50 (pM), +50 nM hu IL-18BP.
## Output 4.41

## Input Given IL-18 variant G3T, M60K, D157E (ligand) YFTKLESKLSVIRNLNDQVLFIDQGNRPLFEDMTDSDMRDNAPRTIFIISMYKDSQPRGKAVTISVKSEKISTLSSENKIISFKEMNPPDNIKDTKSDIIFFQRSVPGHDNKMQFESSSYEGYFLASEKERDLFKLILKKEDELGDRSIMFTVQNEE , state its recorded HEK-Blue Activity Assay Ec50 (pM), +50 nM hu IL-18BP.
## Output 0.65

## Input Given IL-18 variant G3R, K53S (ligand) YFRKLESKLSVIRNLNDQVLFIDQGNRPLFEDMTDSDMRDNAPRTIFIISMYSDSQPRGMAVTISVKSEKISTLSSENKIISFKEMNPPDNIKDTKSDIIFFQRSVPGHDNKMQFESSSYEGYFLASEKERDLFKLILKKEDELGDRSIMFTVQNED , state its recorded HEK-Blue Activity Assay Ec50 (pM), +50 nM hu IL-18BP.
## Output 1.84

Hello, the source for this data is patent US20240182536A1, in case you need it.
